Lab note: IC50 readings collected with BRG-1 (Homo sapiens, UniProt P51532) for the following compounds.
Sequence (P51532 whole entry): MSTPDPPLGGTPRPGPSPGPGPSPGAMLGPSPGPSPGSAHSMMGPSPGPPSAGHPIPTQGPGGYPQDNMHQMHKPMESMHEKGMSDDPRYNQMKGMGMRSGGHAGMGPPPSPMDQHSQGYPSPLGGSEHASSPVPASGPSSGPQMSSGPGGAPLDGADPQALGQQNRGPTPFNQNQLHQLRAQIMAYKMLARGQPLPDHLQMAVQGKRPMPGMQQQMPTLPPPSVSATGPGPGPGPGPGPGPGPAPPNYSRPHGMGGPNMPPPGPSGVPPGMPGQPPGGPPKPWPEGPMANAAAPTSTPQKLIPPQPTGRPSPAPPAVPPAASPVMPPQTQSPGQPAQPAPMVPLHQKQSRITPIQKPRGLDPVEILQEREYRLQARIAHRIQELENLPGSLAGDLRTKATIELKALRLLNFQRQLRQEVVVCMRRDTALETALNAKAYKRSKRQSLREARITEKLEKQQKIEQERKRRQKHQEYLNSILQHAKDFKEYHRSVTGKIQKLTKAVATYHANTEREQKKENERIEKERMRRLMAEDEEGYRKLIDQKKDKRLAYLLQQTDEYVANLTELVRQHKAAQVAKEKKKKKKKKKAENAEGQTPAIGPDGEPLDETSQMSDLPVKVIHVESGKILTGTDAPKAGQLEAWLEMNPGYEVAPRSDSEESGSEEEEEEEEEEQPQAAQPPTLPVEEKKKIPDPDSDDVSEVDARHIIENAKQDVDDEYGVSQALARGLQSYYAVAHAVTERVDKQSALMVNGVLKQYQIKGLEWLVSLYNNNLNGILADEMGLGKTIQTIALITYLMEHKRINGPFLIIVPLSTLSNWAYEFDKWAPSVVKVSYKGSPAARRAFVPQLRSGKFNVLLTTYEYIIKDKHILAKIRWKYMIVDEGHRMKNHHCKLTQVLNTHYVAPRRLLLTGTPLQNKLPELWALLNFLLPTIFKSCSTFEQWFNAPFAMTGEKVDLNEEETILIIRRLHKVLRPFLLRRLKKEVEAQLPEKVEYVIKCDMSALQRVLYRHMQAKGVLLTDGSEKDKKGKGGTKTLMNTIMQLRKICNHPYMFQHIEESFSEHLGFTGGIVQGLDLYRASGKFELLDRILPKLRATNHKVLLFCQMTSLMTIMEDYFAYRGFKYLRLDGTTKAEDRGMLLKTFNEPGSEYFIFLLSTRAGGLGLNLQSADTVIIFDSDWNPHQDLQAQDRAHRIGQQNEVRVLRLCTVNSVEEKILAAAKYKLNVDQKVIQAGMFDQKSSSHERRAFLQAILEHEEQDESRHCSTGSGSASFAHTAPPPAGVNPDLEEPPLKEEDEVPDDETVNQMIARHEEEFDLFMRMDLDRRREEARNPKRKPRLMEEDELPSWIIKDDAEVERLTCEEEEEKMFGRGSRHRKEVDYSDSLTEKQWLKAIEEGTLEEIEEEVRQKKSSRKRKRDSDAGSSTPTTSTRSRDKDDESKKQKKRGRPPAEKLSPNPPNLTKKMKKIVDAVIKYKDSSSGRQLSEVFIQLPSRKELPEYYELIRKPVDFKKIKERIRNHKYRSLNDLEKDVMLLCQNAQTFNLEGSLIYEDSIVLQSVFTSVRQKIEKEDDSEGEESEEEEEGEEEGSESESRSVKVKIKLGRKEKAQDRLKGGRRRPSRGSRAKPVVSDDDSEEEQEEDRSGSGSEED
Form entry: value (nM) — number only.

Value of measured IC50 for the entry COCCc1cnc2c(c1)OCCN2c1ccc2cnc(CNC(=O)c3cc(F)c4c(c3)S(=O)(=O)[C@@H](F)CCO4)cc2n1 : 64

Value of measured IC50 for the entry O=C(NCc1cc2nc(N3CCOc4c(N5CC6(CC6)C5)ccnc43)ccc2cn1)c1cc(F)c2c(c1)S(=O)(=O)[C@@H](F)COC2 : 136

Value of measured IC50 for the entry C[C@@H]1CN(c2cccc(-c3ccc4cnc(CNC(=O)c5cc(Cl)c6c(c5)S(=O)(=O)[C@@H](F)CCO6)cc4n3)n2)C[C@H](C)O1 : 82.6

Value of measured IC50 for the entry COc1cnc2c(c1)CCCN2c1ccc2cnc(CNC(=O)c3cc(F)c4c(c3)S(=O)(=O)[C@@H](F)CCO4)cc2c1 : 125

Value of measured IC50 for the entry CCOc1ccnc2c1OCCN2c1ccc2cnc(CNC(=O)c3cc(Cl)c4c(c3)S(=O)(=O)[C@@H](F)CCO4)cc2n1 : 58.6

Value of measured IC50 for the entry COc1nscc1-c1ccc2cnc(CNC(=O)c3cc(F)c4c(c3)S(=O)(=O)[C@@H](F)CCO4)cc2n1 : 203

Value of measured IC50 for the entry COc1nc([C@@H](C)F)ccc1-c1ccc2cnc(CNC(=O)c3cc(Cl)c4c(c3)S(=O)(=O)[C@@H](F)COC4)cc2n1 : 246
